- System: NCI-H23
- methodDescription: NCI tumour cell line growth inhibition, 48 h
Active and inactive are the calls of the source. No stated cut-off is given here; in the data, active = GI50 up to about 1.1 µM and inactive = higher.
Classes used: active, inactive

- compound: "CCOC(=O)C(C(=O)OCC)C(=S)NC1OC(COC(C)=O)C(OC(C)=O)C(OC(C)=O)C1OC(C)=O (stereo not given)"
  className: "inactive"
- compound: "OC1(C23CC4CC(CC(C4)C2)C3)CSCC1(O)C12CC3CC(CC(C3)C1)C2 (stereo not given)"
  className: "inactive"
- compound: "C=CC[P@@]1(=O)O[C@H](c2ccccc2)C(C)N1C(C)C (stereo not given in full)"
  className: "inactive"
- compound: "CCOC(=O)c1sc2nc(SC)nc3c2c1N=CN3c1ccc(Br)cc1"
  className: "inactive"
- compound: "CCCCC(Sc1cc(Cl)c(C)cc1S(=O)(=O)Nc1nc(N)n[nH]1)C(=O)OC (stereo not given)"
  className: "inactive"
- compound: "Nc1nccc(Nc2ccc(S(N)(=O)=O)cc2)n1"
  className: "inactive"
- compound: "O=[N+]([O-])C[C@@]12O[C@]3(O)C4C5CC(C6C5C3C61)C42 (stereo not given in full)"
  className: "inactive"
- compound: "C[C@@H](C1CC[C@H]2[C@@H]3[C@@H]4O[C@@H]4[C@@]4(O)CC=CC(=O)[C@]4(C)[C@H]3C[C@H](O)[C@]12C)[C@H]1C[C@]2(C)O[C@]2(C)C(=O)O1 (stereo not given in full)"
  className: "inactive"
- compound: "COc1cc([C@@H]2c3cc4c(cc3C[C@H]3COC(=O)[C@@H]32)OCO4)cc(OC)c1OC"
  className: "active"
- compound: "COC(=O)C1=C(O)C(C(=O)OC)[C@]2(O)[C@H](C(=O)OC)[C@H]1C[C@@H](c1ccc(C(F)(F)F)cc1)[C@H]2C(=O)OC (stereo not given in full)"
  className: "inactive"
- compound: "N#CC1=C(c2ccccc2)NN(Cc2ccccc2)C(c2ccc(Cl)cc2)CC1=O (stereo not given)"
  className: "inactive"
- compound: "CC1=CN(c2ccccc2)S2=C1c1sc3c(c1N2c1ccc(Br)cc1)CCCC3 (stereo not given)"
  className: "inactive"
- compound: "COc1ccc(C(=O)/C=C2\\C(=O)Nc3ccc(Br)cc32)cc1"
  className: "inactive"
- compound: "OCC[N+]12CCCN1CCC2"
  className: "inactive"
- compound: "CC1(C)CC(=O)c2c(-c3ccc(Cl)cc3)c(C#N)c(=S)n(C3OC(CO)C(O)C(O)C3O)c2C1 (stereo not given)"
  className: "inactive"

Value source: ChEMBL document CHEMBL1201862
